target: Genome polyprotein (Hepatitis C virus genotype 3a (isolate NZL1) (HCV), UniProt Q81258); assay: Inhibition Assay: HCV polymerase inhibition assay: HCV polymerase reactions were carried out using a modified mothod of Howe et al., Antimicrobial Agents and Chemotherapy 2004 48(12): 4813-4821.
Sequence (Q81258 2431-3021 limits assumed): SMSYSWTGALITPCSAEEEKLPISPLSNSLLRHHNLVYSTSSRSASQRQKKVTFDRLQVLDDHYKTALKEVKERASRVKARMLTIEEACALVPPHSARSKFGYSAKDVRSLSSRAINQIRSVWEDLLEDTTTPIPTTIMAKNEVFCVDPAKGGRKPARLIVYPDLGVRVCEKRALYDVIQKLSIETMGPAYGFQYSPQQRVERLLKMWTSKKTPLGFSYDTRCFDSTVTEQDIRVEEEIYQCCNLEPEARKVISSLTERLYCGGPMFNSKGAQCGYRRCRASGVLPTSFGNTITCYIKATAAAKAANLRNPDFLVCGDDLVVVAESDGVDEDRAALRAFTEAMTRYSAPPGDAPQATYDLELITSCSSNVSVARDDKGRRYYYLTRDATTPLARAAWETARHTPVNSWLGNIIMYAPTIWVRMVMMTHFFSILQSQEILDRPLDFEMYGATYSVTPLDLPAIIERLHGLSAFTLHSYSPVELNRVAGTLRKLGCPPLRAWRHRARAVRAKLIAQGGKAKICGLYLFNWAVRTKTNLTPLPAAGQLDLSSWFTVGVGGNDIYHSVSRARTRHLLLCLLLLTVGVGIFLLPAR
readout-kind: IC50 (µM)
Answers are plain numbers, in µM.

Lab note: `CNC(=O)c1c2cc(C3CC3)c(N(CCCNC(=O)c3ncoc3C)S(C)(=O)=O)cc2nn1-c1ccc(Br)cc1` gave IC50 of 0.03
